Hello, the source for this data is patent US5703097A, in case you need it.

The reader will find reported IC50 values listed item by item below.
biological target: H^+ /K^+ -ATPase (Oryctolagus cuniculus, UniProt P27112); construct: The gastric mucous membrane was removed from a rabbit; experiment: Inhibition of enzyme activity: in vitro inhibition of H+/K+-ATPase (TEST 1); settings: 5 min pre-incubation at 37° C., 4 mM ATP
Sequence (P27112 2-1035 limits assumed): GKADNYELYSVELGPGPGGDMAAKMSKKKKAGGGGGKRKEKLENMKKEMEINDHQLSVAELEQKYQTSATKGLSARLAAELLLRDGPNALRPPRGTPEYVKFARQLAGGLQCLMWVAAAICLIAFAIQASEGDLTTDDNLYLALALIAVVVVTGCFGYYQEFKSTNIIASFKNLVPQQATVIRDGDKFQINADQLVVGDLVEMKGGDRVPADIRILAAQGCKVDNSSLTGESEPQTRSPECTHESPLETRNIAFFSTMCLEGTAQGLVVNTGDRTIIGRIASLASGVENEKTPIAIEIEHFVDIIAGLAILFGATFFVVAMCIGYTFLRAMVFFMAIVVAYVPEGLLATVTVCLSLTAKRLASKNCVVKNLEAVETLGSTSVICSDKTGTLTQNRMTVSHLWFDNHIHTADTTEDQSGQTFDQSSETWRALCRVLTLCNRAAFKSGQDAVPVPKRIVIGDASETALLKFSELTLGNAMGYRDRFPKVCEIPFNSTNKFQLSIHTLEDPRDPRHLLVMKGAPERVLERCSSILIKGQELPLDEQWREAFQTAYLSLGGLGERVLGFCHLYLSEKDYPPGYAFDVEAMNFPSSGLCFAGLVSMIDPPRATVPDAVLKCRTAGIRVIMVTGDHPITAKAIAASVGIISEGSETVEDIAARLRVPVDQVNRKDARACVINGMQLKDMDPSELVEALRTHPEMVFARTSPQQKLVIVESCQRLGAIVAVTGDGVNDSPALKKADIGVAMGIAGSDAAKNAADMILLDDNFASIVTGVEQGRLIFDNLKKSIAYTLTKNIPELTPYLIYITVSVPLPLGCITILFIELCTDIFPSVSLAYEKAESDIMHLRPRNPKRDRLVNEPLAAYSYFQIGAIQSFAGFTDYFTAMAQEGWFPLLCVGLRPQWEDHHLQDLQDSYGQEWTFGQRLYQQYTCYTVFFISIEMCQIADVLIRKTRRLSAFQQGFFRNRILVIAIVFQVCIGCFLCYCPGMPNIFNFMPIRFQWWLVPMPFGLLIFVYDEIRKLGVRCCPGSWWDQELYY
Sequence (P18597 whole entry partner): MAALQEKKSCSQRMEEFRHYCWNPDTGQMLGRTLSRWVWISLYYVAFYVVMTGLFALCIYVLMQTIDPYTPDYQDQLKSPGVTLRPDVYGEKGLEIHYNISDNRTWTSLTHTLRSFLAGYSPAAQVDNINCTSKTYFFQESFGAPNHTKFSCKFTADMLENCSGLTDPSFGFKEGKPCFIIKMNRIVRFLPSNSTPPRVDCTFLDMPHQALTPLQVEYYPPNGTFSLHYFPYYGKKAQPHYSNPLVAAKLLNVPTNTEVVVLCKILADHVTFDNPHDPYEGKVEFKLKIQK
Counter-ions that a name gives are not always drawn.
measure: IC50 (µM)

Cc1c(OCC(F)(F)F)ccnc1C[S+]([O-])c1nc2cc(-n3cccc3)ccc2[nH]1 (stereo not shown)	100
COc1c(C)cnc(C[S+]([O-])c2nc3cc(-n4cccc4)ccc3[nH]2)c1C (stereo not shown)	210
CCc1cnc(C[S+]([O-])c2nc3cc(-n4cccc4)ccc3[nH]2)cc1OC (stereo not shown)	8.8
COc1ccnc(C[S+]([O-])c2nc3cc(-n4cccc4)ccc3[nH]2)c1C (stereo not shown) [Compound 17]	13
Cc1cnc(C[S+]([O-])c2nc3cc(-n4cccc4)ccc3[nH]2)c(C)c1 (stereo not shown)	85
COc1ccnc(C[S+]([O-])c2nc3cc(-n4cccc4)ccc3[nH]2)c1 (stereo not shown)	91
COc1cc(C[S+]([O-])c2nc3cc(-n4cccc4)ccc3[nH]2)ncc1C (stereo not shown) [Compound 18]	38
COc1ccnc(C[S+]([O-])c2nc3cc(-n4c(C)ccc4C)ccc3[nH]2)c1C (stereo not shown)	33
COc1cc(C[S+]([O-])c2nc3cc(-n4cccc4)ccc3[nH]2)ncc1C (stereo not shown) [Compound 5]	32
CCOc1ccnc(C[S+]([O-])c2nc3cc(-n4cccc4)ccc3[nH]2)c1C (stereo not shown)	64
COc1ccnc(C[S+]([O-])c2nc3cc(-n4cccc4)ccc3[nH]2)c1C (stereo not shown) [Compound 2]	23
COc1ccnc(C[S+]([O-])c2nc3cc(-n4cccc4)ccc3[nH]2)c1C (stereo not shown) [Compound 16, sodium salt]	28

* * *

The reader will find reported Volume of gastric juice values listed item by item below.
tested on: gastric juice secretion; test: Effect on inhibition of gastric juice secretion, in vivo, Shay method (TEST 2); parameters: species or system rat (SD male rats); details: 30 mg/kg, into duodenum, 5 hours, pylorus-ligated rats
measure: Volume of gastric juice (ml/100 g BW)

CCOc1ccnc(C[S+]([O-])c2nc3cc(-n4cccc4)ccc3[nH]2)c1C (stereo not drawn)	1.14
COc1cc(C[S+]([O-])c2nc3cc(-n4cccc4)ccc3[nH]2)ncc1C (stereo not drawn) [Compound 5]	0.99
COc1cc(C[S+]([O-])c2nc3cc(-n4cccc4)ccc3[nH]2)ncc1C (stereo not drawn) [Compound 18]	1.53
COc1ccnc(C[S+]([O-])c2nc3cc(-n4cccc4)ccc3[nH]2)c1 (stereo not drawn)	0.87
COc1ccnc(C[S+]([O-])c2nc3cc(-n4cccc4)ccc3[nH]2)c1C (stereo not drawn) [Compound 17]	1.15
COc1ccnc(C[S+]([O-])c2nc3cc(-n4cccc4)ccc3[nH]2)c1C (stereo not drawn) [Compound 2]	0.99

* * *

assay: in vivo; conditions: mouse, po
measure: LD50

COc1ccnc(C[S+]([O-])c2nc3cc(-n4cccc4)ccc3[nH]2)c1C (stereo not shown)	≥ 4000 mg/kg

* * *

molecular target: H^+ /K^+ -ATPase (Oryctolagus cuniculus, UniProt P27112); construct: The gastric mucous membrane was removed from a rabbit; assay: Inhibition of enzyme activity: in vitro inhibition of H+/K+-ATPase (TEST 1); conditions: 5 min pre-incubation at 37° C., 4 mM ATP
measure: IC50

COc1ccnc(CS(=O)(=O)c2nc3cc(-n4cccc4)ccc3[nH]2)c1C	> 400 µM
[O-][S+](Cc1ccccn1)c1nc2cc(-n3cccc3)ccc2[nH]1 (stereo not shown)	> 400 µM
COc1ccnc(CSc2nc3cc(-n4cccc4)ccc3[nH]2)c1C	> 400 µM
Cc1cnc(C[S+]([O-])c2nc3cc(-n4cccc4)ccc3[nH]2)cc1C (stereo not shown)	~400 µM
COc1ccc2[nH]c([S+]([O-])Cc3ncc(C)c(OC)c3C)nc2c1 (stereo not shown) [Omeprazole, reference compound]	~160 µM
Cc1ccnc(C[S+]([O-])c2nc3cc(-n4cccc4)ccc3[nH]2)c1 (stereo not shown)	> 400 µM
Cc1c(OCC(F)(F)C(F)(F)F)ccnc1C[S+]([O-])c1nc2cc(-n3cccc3)ccc2[nH]1 (stereo not shown)	> 400 µM
